Biological target: T1, GAL4 activation domain fusion (ACT) to HAB1 (UniProt Q9CAJ0 23-511, limits assumed)
T1 construct: pACT-HAB1 fusion in yeast reporter strains; also called pACT-HAB1
T1 sequence (looked up): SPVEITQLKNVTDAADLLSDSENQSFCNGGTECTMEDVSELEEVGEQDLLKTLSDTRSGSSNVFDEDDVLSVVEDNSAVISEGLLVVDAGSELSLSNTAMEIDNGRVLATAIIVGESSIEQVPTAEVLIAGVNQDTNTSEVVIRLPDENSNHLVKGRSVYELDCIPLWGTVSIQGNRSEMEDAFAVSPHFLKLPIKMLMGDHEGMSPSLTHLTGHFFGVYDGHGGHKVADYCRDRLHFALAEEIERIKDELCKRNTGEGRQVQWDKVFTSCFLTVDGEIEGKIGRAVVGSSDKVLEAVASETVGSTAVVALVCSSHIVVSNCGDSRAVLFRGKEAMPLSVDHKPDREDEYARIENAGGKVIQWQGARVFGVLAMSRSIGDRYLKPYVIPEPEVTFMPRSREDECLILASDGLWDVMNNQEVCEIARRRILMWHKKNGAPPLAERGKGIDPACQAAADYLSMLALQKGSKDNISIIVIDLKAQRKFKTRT
Test: yeast two-hybrid, X-gal; lowest benzothiadiazole concentration giving signal
Here the recorded Threshold is given for each entry.
API: value field is a number in µM; no unit string.

Would you please look over these solved cases?
{"BINDER": "PYR1^K59R,M158C (receptor, not shown: small tags and cut ends, pBD-PYR1 fusion in yeast) MPSELTPEERSELKNSIAEFHTYQLDPGSCSSLHAQRIHAPPELVWSIVRRFDKPQTYRHFIKSCSVEQNFEMRVGCTRDVIVISGLPANTSTERLDILDDERRVTGFSIIGGEHRLTNYKSVTTVHRFEKENRIWTVVLESYVVDMPEGNSEDDTRCFADTVVKLNLQKLATVAEAMARNSGDGSGSQVT", "ASSAY_READOUT": "Threshold", "UNIT_ABBREVIATION": "µM", "MEAS_VALUE": 100}
{"BINDER": "PYR1^K59R,F159V (receptor, not shown: small tags and cut ends, pBD-PYR1 fusion in yeast) MPSELTPEERSELKNSIAEFHTYQLDPGSCSSLHAQRIHAPPELVWSIVRRFDKPQTYRHFIKSCSVEQNFEMRVGCTRDVIVISGLPANTSTERLDILDDERRVTGFSIIGGEHRLTNYKSVTTVHRFEKENRIWTVVLESYVVDMPEGNSEDDTRMVADTVVKLNLQKLATVAEAMARNSGDGSGSQVT", "ASSAY_READOUT": "Threshold", "UNIT_ABBREVIATION": "µM", "MEAS_VALUE": 100}
{"BINDER": "PYR1^K59R,A160G,L117C (receptor, pBD-PYR1 fusion in yeast) MPSELTPEERSELKNSIAEFHTYQLDPGSCSSLHAQRIHAPPELVWSIVRRFDKPQTYRHFIKSCSVEQNFEMRVGCTRDVIVISGLPANTSTERLDILDDERRVTGFSIIGGEHRCTNYKSVTTVHRFEKENRIWTVVLESYVVDMPEGNSEDDTRMFGDTVVKLNLQKLATVAEAMARNSGDGSGSQVT", "ASSAY_READOUT": "Threshold", "UNIT_ABBREVIATION": "µM", "MEAS_VALUE": 25}
{"BINDER": "PYR1^K59R,A160G,V164K (receptor, pBD-PYR1 fusion in yeast) MPSELTPEERSELKNSIAEFHTYQLDPGSCSSLHAQRIHAPPELVWSIVRRFDKPQTYRHFIKSCSVEQNFEMRVGCTRDVIVISGLPANTSTERLDILDDERRVTGFSIIGGEHRLTNYKSVTTVHRFEKENRIWTVVLESYVVDMPEGNSEDDTRMFGDTVKKLNLQKLATVAEAMARNSGDGSGSQVT", "ASSAY_READOUT": "Threshold", "UNIT_ABBREVIATION": "µM", "MEAS_VALUE": 5}

Alright, here's another binder for you.
Kindly note the recorded Threshold for PYR1^K59R,F159L (receptor, not shown: small tags and cut ends, pBD-PYR1 fusion in yeast) MPSELTPEERSELKNSIAEFHTYQLDPGSCSSLHAQRIHAPPELVWSIVRRFDKPQTYRHFIKSCSVEQNFEMRVGCTRDVIVISGLPANTSTERLDILDDERRVTGFSIIGGEHRLTNYKSVTTVHRFEKENRIWTVVLESYVVDMPEGNSEDDTRMLADTVVKLNLQKLATVAEAMARNSGDGSGSQVT , which is 100
